Target: Renin (Homo sapiens)
Sequence (P00797 whole entry): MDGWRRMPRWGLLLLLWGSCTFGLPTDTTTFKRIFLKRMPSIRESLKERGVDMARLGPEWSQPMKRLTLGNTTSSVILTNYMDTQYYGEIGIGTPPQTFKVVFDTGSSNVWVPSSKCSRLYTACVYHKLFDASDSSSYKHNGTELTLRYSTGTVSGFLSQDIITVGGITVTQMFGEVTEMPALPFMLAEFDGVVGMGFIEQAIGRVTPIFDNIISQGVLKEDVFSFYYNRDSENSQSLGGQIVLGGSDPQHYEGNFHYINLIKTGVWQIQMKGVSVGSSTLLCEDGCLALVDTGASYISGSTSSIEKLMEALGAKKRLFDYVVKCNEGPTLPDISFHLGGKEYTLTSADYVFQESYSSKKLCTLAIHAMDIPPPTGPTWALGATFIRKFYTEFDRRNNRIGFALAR
Assay: In vitro inhibitory activity against human plasma renin
Assay type: cell-free
Non-standard residues stand in square brackets, D forms with d. Residues, ends and D or L forms follow the SMILES beside them. *: point of attachment. Sta = CC(C)C[C@H](N)[C@@H](O)CC(=O)O; Nle = CCCC[C@H](N)C(=O)O; Boc = CC(C)(C)OC(=O)*
quantity: pIC50
# reply with the number alone; pIC50 is -log10 of concentration in mol/L

# get_value(readout= pIC50, system= Renin (Homo sapiens)) for CCCC[C@H](NC(=O)[C@H](Cc1ccccc1)NC(=O)OC(C)(C)C)C(=O)N[C@@H](CC(C)C)[C@@H](O)CC(=O)N[C@@H](C)C(=O)N[C@@H](CC(C)C)[C@@H](O)CC(=O)O (Boc-F[Nle][Sta]A[Sta]-OH)
7.52
